Assay: Biodistribution in AR4-2J tumor-bearing mice
Assay type: in vivo
Conditions: female, mouse, femur, iv, 10 pmol, total radioactivity; AR4-2J tumor SCID mice, 4 h pi; mean ± SD; read-out: Femur uptake

# molecule, tissue uptake at 4 h [%ID/g]
measured = [
    ("C[C@H](NC(=O)CN1CCN(CC(=O)O)CCN(CC(=O)O)CCN(CC(=O)O)CC1)C(=O)NCC(=O)N[C@H]1CSSC[C@@H](C(=O)O)NC(=O)[C@H](CO)NC(=O)[C@H]([C@@H](C)O)NC(=O)[C@H](Cc2ccccc2)NC(=O)[C@H]([C@@H](C)O)NC(=O)[C@H](CCCCN)NC(=O)[C@@H](Cc2c[nH]c3ccccc23)NC(=O)[C@H](Cc2ccccc2)NC(=O)[C@H](Cc2ccccc2)NC(=O)[C@H](CC(N)=O)NC(=O)[C@H](CCCCN)NC1=O [[^111In]AT2S, metal not drawn]", 0.4),
]

---

Assay: Biodistribution in AR4-2J tumor-bearing mice
Format: in vivo
Settings: female, mouse, intestines, iv, 10 pmol total peptide, total radioactivity; AR4-2J tumor SCID mice, 1 h pi; mean ± SD; read-out: Intestines uptake
Description: In the flanks of each of female SCID mice, inocula (150 μL) containing a suspension of 0.8 × 10^7 AR4-2J cells in PBS buffer were subcutaneously injected. […] Mice were sacrificed at 4 h pi, and biodistribution was studied as described above. The in vivo data presented as mean %ID/g ± SD (n ≥ 4) were statistically analyzed with Student’s t test (Prism^TM 2.01, GraphPad Software, San Diego, CA, USA). Analyses were 2-tailed, and a P value < 0.05 was considered statistically significant.

# compound, tissue uptake at 1 h
records = [
    ("C[C@H](NC(=O)CN1CCN(CC(=O)O)CCN(CC(=O)O)CCN(CC(=O)O)CC1)C(=O)NCC(=O)N[C@H]1CSSC[C@@H](C(=O)O)NC(=O)[C@H](CO)NC(=O)[C@H]([C@@H](C)O)NC(=O)[C@H](Cc2ccccc2)NC(=O)[C@H]([C@@H](C)O)NC(=O)[C@H](CCCCN)NC(=O)[C@@H](Cc2c[nH]c3ccccc23)NC(=O)[C@H](Cc2ccccc2)NC(=O)[C@H](Cc2ccccc2)NC(=O)[C@H](CC(N)=O)NC(=O)[C@H](CCCCN)NC1=O [[^111In]AT2S, metal not drawn]", "1.98 %ID/g"),
]

---

Assay: Biodistribution in HEK293-hsst5+ tumor-bearing mice
Assay type: in vivo
Details: mouse, heart, iv, 10 pmol, total radioactivity; HEK293-hsst5+ tumor SCID mice, 4 h pi; mean ± SD; read-out: Heart uptake

# compound, readout units, tissue uptake at 4 h
records = [
    ("C[C@H](NC(=O)CN1CCN(CC(=O)O)CCN(CC(=O)O)CCN(CC(=O)O)CC1)C(=O)NCC(=O)N[C@H]1CSSC[C@@H](C(=O)O)NC(=O)[C@H](CO)NC(=O)[C@H]([C@@H](C)O)NC(=O)[C@H](Cc2ccccc2)NC(=O)[C@H]([C@@H](C)O)NC(=O)[C@H](CCCCN)NC(=O)[C@@H](Cc2c[nH]c3ccccc23)NC(=O)[C@H](Cc2ccccc2)NC(=O)[C@H](Cc2ccccc2)NC(=O)[C@H](CC(N)=O)NC(=O)[C@H](CCCCN)NC1=O [[^111In]AT2S, metal not drawn]", "%ID/g", 0.15),
]
